# Test Target: GPER (Homo sapiens)
# Sequence (Q99527 whole entry, species assumed): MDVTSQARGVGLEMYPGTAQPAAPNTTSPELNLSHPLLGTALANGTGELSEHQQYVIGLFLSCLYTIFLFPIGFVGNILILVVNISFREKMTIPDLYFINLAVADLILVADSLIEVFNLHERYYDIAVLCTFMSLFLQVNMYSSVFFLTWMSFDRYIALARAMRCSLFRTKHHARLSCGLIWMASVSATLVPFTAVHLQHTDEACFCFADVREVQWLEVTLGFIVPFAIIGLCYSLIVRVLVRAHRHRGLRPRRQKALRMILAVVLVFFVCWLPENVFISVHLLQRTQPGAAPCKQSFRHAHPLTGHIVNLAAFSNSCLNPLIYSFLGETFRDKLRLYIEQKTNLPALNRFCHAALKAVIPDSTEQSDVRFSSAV
# Experimental Details: Intracellular calcium mobilization in SKBr3 cells
# Format: cell-based
# Reported Conditions: IC50, inhibition of G-1-mediated calcium mobilization, SKBr3, G-1 200 nM
pIC50: −log10 of the molar value.
Measured Quantity: pIC50

Compound | Test Value
CC(C)c1ccc2c(c1)C1C=CCC1C(c1cc3c(cc1Br)OCO3)N2 (stereo not shown) | 6.78

----------
# Test Target: GPER (Homo sapiens)
# Experimental Details: Intracellular calcium mobilization in SKBr3 cells
# Assay type: cell-based
# Reported Conditions: IC50, inhibition of E2-mediated calcium mobilization, SKBr3, E2 200 nM
pIC50: −log10 of the molar value.

Molecule | pIC50
CC(C)c1ccc2c(c1)C1C=CCC1C(c1cc3c(cc1Br)OCO3)N2 (stereo not shown) | 6.95
